- TARGET OR TEST SYSTEM: human GGT (Homo sapiens)
- Construct: purchased Asahi Kasei Co., Ltd. HC-GTP (lot 603AA)
- Sequence (P19440 1-380 limits assumed): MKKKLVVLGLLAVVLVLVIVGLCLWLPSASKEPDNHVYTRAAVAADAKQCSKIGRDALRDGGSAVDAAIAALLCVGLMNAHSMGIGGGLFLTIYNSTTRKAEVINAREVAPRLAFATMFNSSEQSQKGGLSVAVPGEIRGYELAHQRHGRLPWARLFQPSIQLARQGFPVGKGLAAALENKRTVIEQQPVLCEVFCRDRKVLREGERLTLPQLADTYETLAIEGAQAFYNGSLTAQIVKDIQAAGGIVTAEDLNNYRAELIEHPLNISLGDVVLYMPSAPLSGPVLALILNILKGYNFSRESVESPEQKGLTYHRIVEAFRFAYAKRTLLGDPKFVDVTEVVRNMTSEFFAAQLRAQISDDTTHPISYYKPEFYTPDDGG
- Sequence (P19440 381-569 limits assumed): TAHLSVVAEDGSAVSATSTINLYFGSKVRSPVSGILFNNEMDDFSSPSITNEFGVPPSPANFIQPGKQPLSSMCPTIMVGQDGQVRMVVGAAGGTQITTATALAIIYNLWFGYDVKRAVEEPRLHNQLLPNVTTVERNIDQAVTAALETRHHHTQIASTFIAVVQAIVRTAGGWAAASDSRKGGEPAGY
- EXPERIMENTAL DETAILS: Second-order rate constant kon of human GGT inactivation (continuous or discontinuous assay)
- Assay type: biochemical
- TEST PARAMETERS: position relative to the straight line
MEASURED PROPERTY: plot of log kon (human GGT) against pKa of aryl group, FIG. 4

- CCC(OP(=O)(CCC(N)C(=O)O)Oc1ccccc1)C(=O)NCC(=O)O (stereo not shown) [Example 10]: deviate upward
- COP(=O)(CCC(N)C(=O)O)Oc1ccc2c(C)cc(=O)oc2c1 (stereo not shown) [Example 8]: deviate upward
- COP(=O)(CCC(N)C(=O)O)Oc1cccc(CC(=O)O)c1 (stereo not shown) [Example 11]: deviate upward
- COP(=O)(CCC(N)C(=O)O)Oc1cccc(CCC(=O)O)c1 (stereo not shown) [Example 16]: deviate upward

* * *

Entries and their kon Human GGT values follow.
- TARGET OR TEST SYSTEM: human GGT (Homo sapiens)
- Construct: purchased Asahi Kasei Co., Ltd. HC-GTP (lot 603AA)
- EXPERIMENTAL DETAILS: Second-order rate constant kon of human GGT inactivation (continuous or discontinuous assay)
- Type: biochemical
- TEST PARAMETERS: second-order rate constant for enzyme inactivation; pH 5.5, 25° C.
Form entry: value (M^−1S^−1) — number only.

• NC(CCP(=O)(Oc1ccccc1)Oc1ccccc1)C(=O)O (stereo not drawn) [Example 17] = 0.41
• COP(=O)(CCC(N)C(=O)O)Oc1cccc([N+](=O)[O-])c1 (stereo not drawn) [Example 14] = 49

Now for a further molecule.
kon Human GGT in this record for COP(=O)(CCC(N)C(=O)O)Oc1cccc(CC(=O)O)c1 (stereo not drawn) [Example 11] : 51

* * *

- TARGET OR TEST SYSTEM: E-coli GGT (Escherichia coli, UniProt P18956)
- Construct: was used as a purified enzyme of E-coli GGT; made in house
- Sequence (P18956 26-390 limits assumed): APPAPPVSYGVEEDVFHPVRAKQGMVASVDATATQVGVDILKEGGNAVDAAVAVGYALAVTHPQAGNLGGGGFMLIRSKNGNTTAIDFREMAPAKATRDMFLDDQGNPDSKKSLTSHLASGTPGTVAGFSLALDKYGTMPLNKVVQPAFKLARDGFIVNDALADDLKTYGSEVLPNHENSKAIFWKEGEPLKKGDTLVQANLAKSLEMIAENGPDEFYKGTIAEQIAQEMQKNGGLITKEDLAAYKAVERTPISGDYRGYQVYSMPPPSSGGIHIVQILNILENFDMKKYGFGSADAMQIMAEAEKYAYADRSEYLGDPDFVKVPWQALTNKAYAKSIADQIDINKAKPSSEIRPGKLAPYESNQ
- Sequence (P18956 391-580 limits assumed): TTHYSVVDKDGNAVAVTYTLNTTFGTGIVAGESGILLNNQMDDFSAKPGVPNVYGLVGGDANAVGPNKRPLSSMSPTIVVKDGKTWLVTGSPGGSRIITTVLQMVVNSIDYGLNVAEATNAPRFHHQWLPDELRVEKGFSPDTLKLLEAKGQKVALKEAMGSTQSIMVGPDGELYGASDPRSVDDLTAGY
- EXPERIMENTAL DETAILS: Second-order rate constant kon of E-coli GGT inactivation (continuous or discontinuous assay)
- Assay type: biochemical, Escherichia coli K-12
- TEST PARAMETERS: second-order rate constant for enzyme inactivation; pH 5.5, 25° C.
MEASURED PROPERTY: kon E-coli GGT (M^−1S^−1)
Form entry: value (M^−1S^−1) — number only.

- CCCCOP(=O)(CCC(N)C(=O)O)Oc1ccccc1 (centres unmarked) [Example 9]: 9.0
- COP(=O)(CCC(N)C(=O)O)Oc1ccc(Cl)cc1 (centres unmarked) [Example 4]: 607
- COP(=O)(CCC(N)C(=O)O)Oc1ccc2c(C)cc(=O)oc2c1 (centres unmarked) [Example 8]: 15700
- COP(=O)(CCC(N)C(=O)O)Oc1cccc(CCC(=O)O)c1 (centres unmarked) [Example 16]: 71

kon E-coli GGT in this record for NC(CCP(=O)(Oc1ccccc1)Oc1ccccc1)C(=O)O (centres unmarked) [Example 17] : 28

kon E-coli GGT in this record for COP(=O)(CCC(N)C(=O)O)Oc1ccc(C)cc1 (centres unmarked) [Example 1] : 23

kon E-coli GGT in this record for COP(=O)(CCC(N)C(=O)O)Oc1ccc(C(F)(F)F)cc1 (centres unmarked) [Example 5] : 2800

* * *

- TARGET OR TEST SYSTEM: E-coli GGT (Escherichia coli, UniProt P18956)
- Construct: was used as a purified enzyme of E-coli GGT; made in house
- EXPERIMENTAL DETAILS: Second-order rate constant kon of E-coli GGT inactivation (continuous or discontinuous assay)
- Type: biochemical, Escherichia coli K-12
- TEST PARAMETERS: second-order rate constant for enzyme inactivation; pH 5.5, 25° C.
MEASURED PROPERTY: kon E-coli GGT (M^−1S^−1)
Form entry: value (M^−1S^−1) — number only.

kon E-coli GGT in this record for COP(=O)(CCC(N)C(=O)O)Oc1ccccc1 (stereo not shown) : 115

kon E-coli GGT in this record for COP(=O)(CCC(N)C(=O)O)Oc1cccc([N+](=O)[O-])c1 (stereo not shown) : 5100

kon E-coli GGT in this record for CCC(OP(=O)(CCC(N)C(=O)O)Oc1ccccc1)C(=O)NCC(=O)O (stereo not shown) : 80.9

kon E-coli GGT in this record for COP(=O)(CCC(N)C(=O)O)Oc1ccc(C(=O)O)cc1 (stereo not shown) : 3200

Hello, the source for this data is patent US8129557B2, in case you need it.
